- Target Of Assay: T1, human Trop-2 expressed on cell surface (human, UniProt P09758 27-323)
- T1 construct: whole, on cells; also called cell surface Trop-2
- T1 sequence (looked up): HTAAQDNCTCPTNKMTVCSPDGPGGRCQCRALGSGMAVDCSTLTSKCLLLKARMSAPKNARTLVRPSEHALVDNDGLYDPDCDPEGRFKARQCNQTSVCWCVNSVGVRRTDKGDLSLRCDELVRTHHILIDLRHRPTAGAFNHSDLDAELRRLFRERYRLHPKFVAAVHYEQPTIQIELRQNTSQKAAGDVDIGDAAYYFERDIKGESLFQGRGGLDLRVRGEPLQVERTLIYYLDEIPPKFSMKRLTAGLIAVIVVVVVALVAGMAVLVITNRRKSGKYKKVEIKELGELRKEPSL
- Experimental Protocol: flow cytometry, MCF-7 cells
Measured Property: EC50 (nM)
Provide only the numeric value, understood in nM.

Known EC50 results, listed for orientation:
63H3 (antibody, V domains shown, Rabbit-derived clone; LEM construct: VH + rabbit IgG CH1 + human IgG1 CH2-CH3) VH: QEQLKESGGGLVQPGGSLKLSCKASGFDFNSYGVSWVRQAPGKGLEWIAYIYPAFHNAYYANWVNGRFTISSDNAQNTVDLQLNSLTAADTATYFCARDAGGTDYNYNLWGPGTLVTVSS VL: DVVMTQTPASVEVAVGGTVTLKCQASEDIESYSAWYQQKPGQPPNLLIYEASKLASGVSSRFSGSGYGTEFTLTISGVECADAATYYCQQALTIGNVDNPFGGGSEVVVR	0.6
5D4 (antibody, V domains shown, Rabbit-derived clone; LEM construct: VH + rabbit IgG CH1 + human IgG1 CH2-CH3) VH: QQLEESGGGLVKPEGSLTLTCKGSGFDFSGTYWMWWVRQAPGKGLEWIACIYVGSGSSTYYASWAKGRFTISSTSSTAVTLQATSLTAADTATYFCARGATNNVFMNYFNLWGPGTLVTVSS VL: FEMTQTPSSVSEPVGGTVTIKCQASEDISSNLGWYQQKPGQPPKLLIYGASTLASGVPSRFKGSGSGTEFTLTISDLECADAATYYCQTSYYIDDGVNGFGGGTEVVVK	1.2

Consider the record given below.
[ask] May I ask what EC50 has been recorded for Sacituzumab govitecan (antibody, INN chains, looked up, V domains shown, SN-38 payload (govitecan)) VH: QVQLQQSGSELKKPGASVKVSCKASGYTFTNYGMNWVKQAPGQGLKWMGWINTYTGEPTYTDDFKGRFAFSLDTSVSTAYLQISSLKADDTAVYFCARGGFGSSYWYFDVWGQGSLVTVSS VL: DIQLTQSPSSLSASVGDRVSITCKASQDVSIAVAWYQQKPGKAPKLLIYSASYRYTGVPDRFSGSGSGTDFTLTISSLQPEDFAVYYCQQHYITPLTFGAGTKVEIKR ?
[reply] 2.2
